- MEASURED_TARGET: Adrenergic receptor alpha-1 (Rattus norvegicus, UniProt P15823+P23944+P43140)
- ASSAY_PROTOCOL: In vitro binding affinity at Alpha-1 adrenergic receptor by radioligand binding assay using [3H]prazosin
- Format: protein assay
READOUT_LABEL: Ki (nM)

Recorded Ki, per entry:
>  <COMPOUND>
c1ccc([C@H]2CCN(C[C@@H]3CCCc4c3ccc3c4OCO3)C2)cc1

>  <MEASURED_TARGET>
Adrenergic receptor alpha-1 (Rattus norvegicus, UniProt P15823+P23944+P43140)

>  <UNIT_OF_MEASUREMENT>
nM

>  <VALUE_OBSERVED>
106

$$$$
>  <COMPOUND>
c1ccc([C@@H]2CCN(C[C@H]3CCCc4c3ccc3c4OCO3)C2)cc1

>  <MEASURED_TARGET>
Adrenergic receptor alpha-1 (Rattus norvegicus, UniProt P15823+P23944+P43140)

>  <UNIT_OF_MEASUREMENT>
nM

>  <VALUE_OBSERVED>
104

$$$$

(A) c1ccc([C@H]2CCN(C[C@H]3CCCc4c3ccc3c4OCO3)C2)cc1
(B) c1ccc(C2CCN(CC3CCCc4c3ccc3c4OCO3)C2)cc1 (stereo in doubt; 1a/b)
(C) c1ccc(C2CCN(CC3CCCc4c3ccc3c4OCO3)C2)cc1 (stereo in doubt; 6a/b)
(D) c1ccc([C@@H]2CCN(C[C@@H]3CCCc4c3ccc3c4OCO3)C2)cc1
Please order the records by their reported Ki, lowest number first. Give the labels in the order requested.
D, C, B, A

====

- MEASURED_TARGET: Adrenergic receptor alpha-2 (Rattus norvegicus, UniProt P22086+P19328+P22909)
- Sequence (P22086 whole entry): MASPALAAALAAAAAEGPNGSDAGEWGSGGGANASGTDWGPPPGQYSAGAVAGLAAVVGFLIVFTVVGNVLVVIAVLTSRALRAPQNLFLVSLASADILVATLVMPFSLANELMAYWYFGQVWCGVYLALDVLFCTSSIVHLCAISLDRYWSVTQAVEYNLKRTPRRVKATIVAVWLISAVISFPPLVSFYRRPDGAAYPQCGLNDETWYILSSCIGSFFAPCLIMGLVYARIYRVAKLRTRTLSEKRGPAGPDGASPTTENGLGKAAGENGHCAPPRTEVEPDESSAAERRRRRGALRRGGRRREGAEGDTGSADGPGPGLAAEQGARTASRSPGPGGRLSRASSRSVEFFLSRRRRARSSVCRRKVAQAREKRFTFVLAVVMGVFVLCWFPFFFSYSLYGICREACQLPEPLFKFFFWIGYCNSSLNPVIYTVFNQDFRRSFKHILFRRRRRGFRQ
- Sequence (P19328 whole entry): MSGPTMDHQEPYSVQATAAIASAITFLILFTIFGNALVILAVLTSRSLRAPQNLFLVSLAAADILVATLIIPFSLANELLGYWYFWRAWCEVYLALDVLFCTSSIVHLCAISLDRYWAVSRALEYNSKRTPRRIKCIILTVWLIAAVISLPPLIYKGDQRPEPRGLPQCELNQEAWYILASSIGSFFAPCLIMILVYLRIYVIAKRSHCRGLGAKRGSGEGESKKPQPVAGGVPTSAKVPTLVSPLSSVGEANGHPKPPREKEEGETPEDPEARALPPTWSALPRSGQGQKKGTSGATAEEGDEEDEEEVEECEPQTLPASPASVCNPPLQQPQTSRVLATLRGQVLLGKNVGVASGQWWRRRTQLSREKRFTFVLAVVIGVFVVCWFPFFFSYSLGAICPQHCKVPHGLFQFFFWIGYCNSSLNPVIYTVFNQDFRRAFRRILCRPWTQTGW
- Sequence (P22909 whole entry): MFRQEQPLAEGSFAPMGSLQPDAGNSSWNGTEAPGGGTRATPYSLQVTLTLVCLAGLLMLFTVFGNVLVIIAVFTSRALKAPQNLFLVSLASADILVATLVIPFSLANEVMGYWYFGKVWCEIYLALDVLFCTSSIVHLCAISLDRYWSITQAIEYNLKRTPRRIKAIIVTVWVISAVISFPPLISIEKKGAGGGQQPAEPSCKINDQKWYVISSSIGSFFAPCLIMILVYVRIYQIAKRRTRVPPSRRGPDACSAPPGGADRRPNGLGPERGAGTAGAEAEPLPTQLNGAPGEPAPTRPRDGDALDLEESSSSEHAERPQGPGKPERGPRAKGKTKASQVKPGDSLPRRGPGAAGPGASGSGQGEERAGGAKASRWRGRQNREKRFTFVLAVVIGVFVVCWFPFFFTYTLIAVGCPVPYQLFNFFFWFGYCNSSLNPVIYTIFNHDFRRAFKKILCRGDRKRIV
- ASSAY_PROTOCOL: Evaluated for its presynaptic Alpha-2 adrenergic receptor antagonistic activity against rat vas deferens using clonidine as the control expressed as slope
- Assay type: functional, tissue-based
READOUT_LABEL: pA2

>  <COMPOUND>
c1ccc(C2CCN(CC3CCCc4c3ccc3c4OCO3)C2)cc1 (stereo in doubt; 6a/b)

>  <pA2>
7.84

$$$$
>  <COMPOUND>
c1ccc([C@H]2CCN(C[C@H]3CCCc4c3ccc3c4OCO3)C2)cc1

>  <pA2>
6.65

$$$$
>  <COMPOUND>
c1ccc([C@@H]2CCN(C[C@H]3CCCc4c3ccc3c4OCO3)C2)cc1

>  <pA2>
6.78

$$$$
>  <COMPOUND>
c1ccc(C2CCN(CC3CCCc4c3ccc3c4OCO3)C2)cc1 (stereo in doubt; 1a/b)

>  <pA2>
7.68

$$$$
>  <COMPOUND>
c1ccc([C@@H]2CCN(C[C@@H]3CCCc4c3ccc3c4OCO3)C2)cc1

>  <pA2>
7.91

$$$$
>  <COMPOUND>
c1ccc([C@H]2CCN(C[C@@H]3CCCc4c3ccc3c4OCO3)C2)cc1

>  <pA2>
7.78

$$$$
